All figures here come from patent US20140235701.

binders and their reported IC50
target: NGF (nerve growth factor) (Homo sapiens, UniProt P01138 P01138:122-241); test: cell_activity; neurite; TF-1 0.084; conditions: tags: R&D Systems; chain copies: 2
Sequence (P01138 122-241, one chain of several): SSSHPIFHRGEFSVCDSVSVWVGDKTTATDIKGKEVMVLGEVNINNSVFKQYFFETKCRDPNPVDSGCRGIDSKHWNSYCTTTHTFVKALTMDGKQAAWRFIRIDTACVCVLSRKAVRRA
READOUT_KIND: IC50

* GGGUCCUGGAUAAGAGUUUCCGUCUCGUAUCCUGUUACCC (ssRNA, as 82(1) except 2'-OMe U4,C6,U11,C21,U23,U28,U30,C31,C32,U35,C38-40) [SEQ ID NO: 82(24)] | < 0.1 nM
* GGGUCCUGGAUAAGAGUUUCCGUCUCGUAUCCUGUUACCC (ssRNA, as 82(1) except 2'-OMe U4,C6,U11,C21,U23,C26,U30,C31,C32,U35,C38-40) [SEQ ID NO: 82(23)] | < 0.1 nM
